From: patent US20130337564A1

# assay text: MTS viability (toxicity) assay of cells expressing pluripotency markers
# Assay type: cell-based, human
# conditions: human, cmpd conc 2.5 μM; MTS on day 4; relative to Activin A + Wnt3a positive control; read-out: % Control (percentage viability of control)
// returns not fulfilled unless viability at 4 days, 2.5 μM is strictly below 90%, in which case fulfilled

Example entries begin here.
compound: O=C1NC(=O)C(c2cn(CCOCCOCCO)c3ccccc23)=C1c1cn(CCO)c2ccccc12
class name: not fulfilled
//
compound: O=C1NC(=O)C(c2cn(CCOCCOCCNC3CCCc4ccccc43)c3ccccc23)=C1c1cn(CCNC2CCCc3ccccc32)c2ccccc12 (centres unmarked)
class name: fulfilled
//
compound: O=C1NC(=O)C(c2cn(-c3cccnc3)c3ccccc23)=C1c1cn(CCO)c2ccccc12
class name: not fulfilled
//
compound: O=C1NC(=O)C2=C1Nc1cccc(c1)OCCC/C=C\CCCOc1cccc2c1
class name: fulfilled
//
compound: CC(C)(O)CCn1nc(C2=C(c3cn(-c4cccnc4)c4ccccc34)C(=O)NC2=O)c2ccccc21
class name: not fulfilled

API: query returns whether the compound falls strictly under 90% in viability at 4 days, 2.5 μM. Query: OCCC#Cc1nc(-c2ccc(F)cc2)c(-c2ccncc2)n1CCCc1ccccc1 not fulfilled

Could you do the same for COC(=O)c1cncc(-n2cc(C3=C(c4nn(CCO)c5ccccc45)C(=O)NC3=O)c3cc(Cl)ccc32)c1 , please? not fulfilled

====

# System: human embryonic stem cells (H9 or H1 lines)
# assay text: Plate reader (MTS) proliferation assay
# Type: cell-based
# conditions: average of replicate raw data
measurement kind: Average
Numbers only.

For each listed entry, give its Average.
1. CN(CCO)CCCn1nc(C2=C(c3cn(-c4cccnc4)c4ccccc34)C(=O)NC2=O)c2ccccc21 [Compound 198]
2. CN(C)CCCn1c2c(c3ccccc31)C1=C(C(=O)NC1=O)N(c1cccc(Cl)c1)C2 [Compound 101]
3. COC(=O)c1cncc(-n2cc(C3=C(c4nn(CCO)c5ccccc45)C(=O)NC3=O)c3cc(Cl)ccc32)c1 [Compound 150]

1.1253
1.0316
0.9475

====

# Test system: cells expressing pluripotency markers derived from human embryonic stem cells
# assay text: MTS viability (toxicity) assay of cells expressing pluripotency markers
# Type: cell-based
# conditions: MTS viability assay raw reading, replicate 2
Please respond with reported Raw data (duplicate), second replicate for every item in the list.

compound structure string: CN1CCN(C)CCn2cc(c3ccccc32)C2=C(C(=O)NC2=O)c2cn(c3ccccc23)CC1
reported: 0.841
--
compound structure string: CN(CCO)CCCn1nc(C2=C(c3cn(-c4cccnc4)c4ccccc34)C(=O)NC2=O)c2ccccc21
reported: 0.905

Consider the record given below.
Could you share what Raw data (duplicate), second replicate was measured for Cn1cc(C2=C(c3nn(CC(=O)NCCO)c4ccccc34)C(=O)NC2=O)c2cc(Cl)ccc21 , tested on cells expressing pluripotency markers derived from human embryonic stem cells? 0.809
